ASSAYED TARGET: endotheline receptor
PROCEDURE DETAILS: Activity on the endotheline receptor: displacement of 125I endotheline from rat brain membrane preparation
Type: binding
SETTINGS: membrane preparation from rat posterior cortex and brain, 25° C., 60 minutes, 7 concentrations, read-out: IC50 (50% inhibiting concentration; concentration necessary to displace 50% of the specific radioactivity fixed on the receptor)
Where a SMILES comes first, the peptide text is derived from it. [ ]: non-standard residue; d: D form. Nle = CCCC[C@H](N)C(=O)O
Quick reference for IC50 among some compounds
Number only, in µM; omit the unit.

What is its IC50 for endotheline receptor? Entry: CCCC[C@H](NC(=O)[C@H](CC(C)C)NC(=O)[C@H](CO)NC(=O)[C@H](CO)NC(=O)[C@@H](N)CS)C(=O)N[C@@H](CC(=O)O)C(=O)N[C@@H](CCCCN)C(=O)N[C@@H](CCC(=O)O)C(=O)N[C@@H](CS)C(=O)N[C@@H](Cc1c[nH]cn1)C(=O)N[C@@H](CC(C)C)C(=O)N[C@@H](CC(=O)O)C(=O)N[C@H](C(=O)N[C@H](C(=O)N[C@@H](Cc1c[nH]c2ccccc12)C(=O)O)[C@@H](C)CC)[C@@H](C)CC [Example 8] (H-CSSL[Nle]DKECHLDIIW-OH)
5.35

----------
// IC50 lookup, one value per entry
ASSAYED TARGET: endotheline receptor
PROCEDURE DETAILS: Activity on the endotheline receptor: displacement of 125I endotheline from rat brain membrane preparation
Format: binding
SETTINGS: membrane preparation from rat posterior cortex and brain, 25° C., 60 minutes, 7 concentrations, read-out: IC50 (50% inhibiting concentration; concentration necessary to displace 50% of the specific radioactivity fixed on the receptor)
Where a SMILES comes first, the peptide text is derived from it. Bridges are numbered along the chain shown (N, C = ends). [ ]: non-standard residue; d: D form. Nle = CCCC[C@H](N)C(=O)O
Give the quantity in µM, number only.

[
  {
    "MOLECULE": "CC[C@H](C)[C@H](NC(=O)[C@H](CC(=O)O)NC(=O)[C@H](CC(C)C)NC(=O)[C@H](Cc1c[nH]cn1)NC(=O)[C@H](CS)NC(=O)[C@H](Cc1ccc(O)cc1)NC(=O)CNC(=O)[C@H](CC(N)=O)NC(=O)[C@@H]1CCCN1C(=O)CNC(=O)[C@H](C)NC(=O)[C@H](CC(C)C)NC(=O)[C@@H](N)CS)C(=O)N[C@H](C(=O)N[C@@H](Cc1c[nH]c2ccccc12)C(=O)O)[C@@H](C)CC [Example 10] (H-CLAGPNGYCHLDIIW-OH)",
    "ASSAYED TARGET": "endotheline receptor",
    "VALUE REPORTED": 0.62
  },
  {
    "MOLECULE": "CCCC[C@@H]1NC(=O)[C@H](CC(C)C)NC(=O)[C@H](CO)NC(=O)[C@H](CO)NC(=O)[C@@H](N)CSSC[C@@H](C(=O)N[C@@H](Cc2c[nH]cn2)C(=O)N[C@@H](CC(C)C)C(=O)N[C@@H](CC(=O)O)C(=O)N[C@H](C(=O)N[C@H](C(=O)N[C@@H](Cc2c[nH]c3ccccc23)C(=O)O)[C@@H](C)CC)[C@@H](C)CC)NC(=O)[C@H](CCC(=O)O)NC(=O)[C@H](CCCCN)NC(=O)[C@H](CC(=O)O)NC1=O [Example 7] (H-CSSL[Nle]DKECHLDIIW-OH; disulfide 1-9)",
    "ASSAYED TARGET": "endotheline receptor",
    "VALUE REPORTED": 3.52
  }
]

Below: the item to evaluate.
Fill blank: measured IC50 of the molecule CC[C@H](C)[C@H](NC(=O)[C@H](CC(=O)O)NC(=O)[C@H](CC(C)C)NC(=O)[C@H](Cc1c[nH]cn1)NC(=O)[C@@H]1CSSC[C@H](N)C(=O)N[C@@H](CC(C)C)C(=O)N[C@@H](C)C(=O)NCC(=O)N2CCC[C@H]2C(=O)N[C@@H](CC(N)=O)C(=O)NCC(=O)N[C@@H](Cc2ccc(O)cc2)C(=O)N1)C(=O)N[C@H](C(=O)N[C@@H](Cc1c[nH]c2ccccc12)C(=O)O)[C@@H](C)CC [Example 9] (H-CLAGPNGYCHLDIIW-OH; disulfide 1-9) is ____.
7.5

Origin of values: patent US5510331A
